Assay: reversal of MRP1-mediated doxorubicin resistance, pilot screen, H69AR cells, doxorubicin co-treatment (AID 601)
Details: H69AR cells + 2 uM doxorubicin, CellTiter-Glo, 72 h; at 10 µM; hits give high values
Reported differential viability (reversal) values are given for each entry in this list.
// note: answer is a bare numeric in %

Below: 2 compounds and their reported differential viability (reversal).
INSERT INTO results (compound, numeric_readout) VALUES
  ('CCS(=O)(=O)N1CCCC(C(=O)NCCc2ccc(OC)c(OC)c2)C1 (stereo not given)', 9.14),
  ('Fc1c(F)c(F)c(CSc2nc3ccccc3[nH]2)c(F)c1F', 11.8);

Entry Cc1ccc(S(=O)(=O)c2cc3c(=O)n4ccccc4nc3n(CC3CCCO3)c2=N)cc1C (stereo not given) — recorded differential viability (reversal) = 2.4

Entry O=C(CSc1nc2ccccc2o1)N1CCN(C(=O)c2ccco2)CC1 — recorded differential viability (reversal) = 1.25

Entry Cc1nc(N2CCN(c3ncccn3)CC2)c2oc3ccccc3c2n1 — recorded differential viability (reversal) = -11.8

Entry Cc1cc(C)n2nc(SCC(=O)N(C)Cc3ccccc3)nc2n1 — recorded differential viability (reversal) = -20.2

Entry CN(C)/C=c1\sc2c(C#N)cc(C(=O)c3ccc(Br)cc3)n2c1=O — recorded differential viability (reversal) = 8.66

Entry N#Cc1c(N)n(CCOC(=O)c2cccc(Br)c2)c2nc3ccccc3nc12 — recorded differential viability (reversal) = 3.64

Entry O=C(NCc1ccc2c(c1)OCO2)c1cccc2c1C(=O)N(C1CCCCC1)C2 — recorded differential viability (reversal) = -12.7

Entry CC1=C(C(=O)OCC(C)C)C(c2cc3c(cc2Br)OCO3)NC(=O)N1C (stereo not given) — recorded differential viability (reversal) = -12.5
